Consider the following compounds and their measured Kd readings.
# tested-system: FGFR1 (Homo sapiens (Human), UniProt P11362)
# Sequence (P11362 22-822): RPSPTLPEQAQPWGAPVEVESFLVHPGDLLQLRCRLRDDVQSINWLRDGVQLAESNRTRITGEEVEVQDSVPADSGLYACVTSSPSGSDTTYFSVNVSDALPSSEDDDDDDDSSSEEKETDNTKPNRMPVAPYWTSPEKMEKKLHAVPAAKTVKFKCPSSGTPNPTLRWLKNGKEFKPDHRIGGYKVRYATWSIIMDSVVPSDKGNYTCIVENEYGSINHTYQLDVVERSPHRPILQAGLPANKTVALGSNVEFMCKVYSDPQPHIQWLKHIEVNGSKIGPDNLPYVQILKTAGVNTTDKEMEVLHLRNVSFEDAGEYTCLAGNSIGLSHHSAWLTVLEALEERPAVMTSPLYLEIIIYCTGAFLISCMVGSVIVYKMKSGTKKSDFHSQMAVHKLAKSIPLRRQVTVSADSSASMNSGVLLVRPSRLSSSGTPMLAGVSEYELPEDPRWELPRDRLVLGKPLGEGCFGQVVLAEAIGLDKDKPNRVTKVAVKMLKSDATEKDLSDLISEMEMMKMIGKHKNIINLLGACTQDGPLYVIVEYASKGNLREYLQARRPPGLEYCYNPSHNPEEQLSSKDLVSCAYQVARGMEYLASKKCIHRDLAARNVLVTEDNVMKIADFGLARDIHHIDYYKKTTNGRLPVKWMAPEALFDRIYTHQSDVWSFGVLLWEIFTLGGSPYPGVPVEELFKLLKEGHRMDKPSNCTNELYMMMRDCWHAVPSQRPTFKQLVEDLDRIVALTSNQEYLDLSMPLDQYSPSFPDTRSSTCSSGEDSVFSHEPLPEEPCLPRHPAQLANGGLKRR
# experiment-notes: Kinase assay, binding constants (Kd), kinase-tagged T7 phage, qPCR
assay-metric: Kd

• C[C@@H](Oc1ccc2[nH]nc(-c3ccc(N4CCC5(CC4)CN(C)CC(=O)N5C)nc3)c2c1)c1c(Cl)cncc1Cl = 1 to 20 nM
• CCOC(=O)N1CC2(C1)CN(c1ccc(-c3n[nH]c4ccc(O[C@H](C)c5c(Cl)cnc(C)c5Cl)cc34)cn1)C2 = 100 to 300 nM
• CCOC(=O)N1CCCC2(C1)CN(c1ncc(-c3n[nH]c4ccc(O[C@H](C)c5c(Cl)cncc5Cl)cc34)cn1)C2 = 100 to 300 nM
• COc1cc2[nH]nc(-c3ccc(N4CC5(C4)CN(S(C)(=O)=O)C5)nc3)c2cc1O[C@H](C)c1c(Cl)cnc(C)c1Cl = 1 to 20 nM
• C[C@@H](Oc1ccc2[nH]nc(-c3cnc(N4CCCN(S(C)(=O)=O)CC4)nc3)c2c1)c1c(Cl)cncc1Cl = 20 to 100 nM
• CC(Oc1ccc2[nH]nc(-c3cnn(C4CCN(C5COC5)CC4)c3)c2c1)c1c(Cl)ccnc1Cl (stereo not shown) = 20 to 100 nM
• C[C@@H](Oc1ccc2[nH]nc(-c3ccc(N4CC5(CCCNC5)C4)nc3)c2c1)c1c(Cl)cncc1Cl = 1 to 20 nM
• C[C@@H](Oc1ccc2[nH]nc(-c3cnn(C4CCN(C)CC4)c3)c2c1)c1c(Cl)cncc1Cl = 1 to 20 nM
• C[C@@H](Oc1cc2c(-c3cnc(N4CC5(C4)CN(S(C)(=O)=O)C5)c(F)c3)n[nH]c2cc1Cl)c1c(Cl)cnnc1Cl = 1 to 20 nM
• C[C@@H](Oc1ccc2[nH]nc(-c3cnc(N4CC[C@@H]4CO)c(C#N)c3)c2c1)c1c(Cl)cncc1Cl = 20 to 100 nM
• C[C@@H](Oc1ccc2[nH]nc(-c3cnc(N4CCC[C@@H]4CO)c(C#N)c3)c2c1)c1c(Cl)cncc1Cl = 20 to 100 nM
• C[C@@H](Oc1ccc2[nH]nc(-c3cnn(C4CCN(S(C)(=O)=O)CC4)c3)c2c1)c1c(Cl)cncc1Cl = 1 to 20 nM
• C[C@@H](Oc1ccc2[nH]nc(-c3cnc(N4CC5(CCCS(=O)(=O)C5)C4)nc3)c2c1)c1c(Cl)cncc1Cl = 20 to 100 nM
• COC(=O)N1CCCC2(C1)CN(c1ncc(-c3n[nH]c4ccc(O[C@H](C)c5c(Cl)cncc5Cl)cc34)cn1)C2 = 20 to 100 nM
• C[C@@H](Oc1ccc2[nH]nc(-c3ccc(N4CC5(CN(CC(F)F)C5)C4)nc3)c2c1)c1c(Cl)cncc1Cl = 1 to 20 nM
• COc1cc2[nH]nc(-c3cnc(N4CC[C@@H]4C)c(S(C)(=O)=O)c3)c2cc1O[C@H](C)c1c(Cl)cncc1Cl = > 300 nM
